- Assay Notes: Single-dose two-period crossover bioequivalence study, fed (high-fat breakfast): plasma pharmacokinetics of lisinopril and amlodipine (LC-MS/MS, NCA)
- Settings: human, plasma, po, Plasma concentration of lisinopril, Max, maximum among subjects, nominal time 13 h, reference (R) tablets
Metric: concentration at 13 h (ng/mL)
Write it as a number; the unit ng/mL goes unstated.

INPUT: Entry NCCCC[C@H](N[C@@H](CCc1ccccc1)C(=O)O)C(=O)N1CCC[C@H]1C(=O)O has what concentration at 13 h?
OUTPUT: 19

###

- Assay Notes: Single-dose two-period crossover bioequivalence study, fasting: plasma pharmacokinetics of lisinopril and amlodipine (LC-MS/MS, NCA);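 also: single tablet dose 10 mg/5 mg fixed combination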
- Settings: human, plasma, po, Plasma concentration of amlodipine, Mean, reference (R) tablets, nominal time 11 h, mean of subjects
Metric: concentration at 11 h (ng/mL)
Write it as a number; the unit ng/mL goes unstated.

INPUT: Entry CCOC(=O)C1=C(COCCN)NC(C)=C(C(=O)OC)C1c1ccccc1Cl (stereo not shown) has what concentration at 11 h?
OUTPUT: 1.77

###

- Assay Notes: Single-dose two-period crossover bioequivalence study, fed (high-fat breakfast): plasma pharmacokinetics of lisinopril and amlodipine (LC-MS/MS, NCA)
- Settings: human, plasma, po, Plasma concentration of lisinopril, Min, minimum among subjects, nominal time 9 h, reference (R) tablets
Metric: concentration at 9 h (ng/mL)
Write it as a number; the unit ng/mL goes unstated.

INPUT: Entry NCCCC[C@H](N[C@@H](CCc1ccccc1)C(=O)O)C(=O)N1CCC[C@H]1C(=O)O has what concentration at 9 h?
OUTPUT: 4.2

###

- Assay Notes: Single-dose two-period crossover bioequivalence study, fed (high-fat breakfast): plasma pharmacokinetics of lisinopril and amlodipine (LC-MS/MS, NCA)
- Settings: human, plasma, po, Plasma concentration of lisinopril, Min, minimum among subjects, nominal time 10 h, reference (R) tablets
Metric: concentration at 10 h (ng/mL)
Write it as a number; the unit ng/mL goes unstated.

INPUT: Entry NCCCC[C@H](N[C@@H](CCc1ccccc1)C(=O)O)C(=O)N1CCC[C@H]1C(=O)O [lisinopril] has what concentration at 10 h?
OUTPUT: 4.09

###

- Assay Notes: Single-dose two-period crossover bioequivalence study, fed (high-fat breakfast): plasma pharmacokinetics of lisinopril and amlodipine (LC-MS/MS, NCA)
- Settings: human, plasma, po, Plasma concentration of lisinopril, Mean, mean of 37 subjects, nominal time 168 h, reference (R) tablets
Metric: concentration at 168 h (ng/mL)
Write it as a number; the unit ng/mL goes unstated.

INPUT: Entry NCCCC[C@H](N[C@@H](CCc1ccccc1)C(=O)O)C(=O)N1CCC[C@H]1C(=O)O has what concentration at 168 h?
OUTPUT: 0.639

###

- Assay Notes: Single-dose two-period crossover bioequivalence study, fed (high-fat breakfast): plasma pharmacokinetics of lisinopril and amlodipine (LC-MS/MS, NCA)
- Settings: human, plasma, po, Plasma concentration of lisinopril, Max, maximum among subjects, nominal time 8 h, reference (R) tablets
Metric: concentration at 8 h (ng/mL)
Write it as a number; the unit ng/mL goes unstated.

INPUT: Entry NCCCC[C@H](N[C@@H](CCc1ccccc1)C(=O)O)C(=O)N1CCC[C@H]1C(=O)O has what concentration at 8 h?
OUTPUT: 27.4

###

- Assay Notes: Single-dose two-period crossover bioequivalence study, fed (high-fat breakfast): plasma pharmacokinetics of lisinopril and amlodipine (LC-MS/MS, NCA)
- Settings: human, plasma, po, Plasma concentration of lisinopril, Min, minimum among subjects, nominal time 72 h, reference (R) tablets
Metric: concentration at 72 h (ng/mL)
Write it as a number; the unit ng/mL goes unstated.

INPUT: Entry NCCCC[C@H](N[C@@H](CCc1ccccc1)C(=O)O)C(=O)N1CCC[C@H]1C(=O)O has what concentration at 72 h?
OUTPUT: 0.736

###

- Assay Notes: Single-dose two-period crossover bioequivalence study, fed (high-fat breakfast): plasma pharmacokinetics of lisinopril and amlodipine (LC-MS/MS, NCA)
- Settings: human, plasma, po, Plasma concentration of lisinopril, Mean, mean of 37 subjects, nominal time 48 h, reference (R) tablets
Metric: concentration at 48 h (ng/mL)
Write it as a number; the unit ng/mL goes unstated.

INPUT: Entry NCCCC[C@H](N[C@@H](CCc1ccccc1)C(=O)O)C(=O)N1CCC[C@H]1C(=O)O [lisinopril] has what concentration at 48 h?
OUTPUT: 1.88

###

- Assay Notes: Single-dose two-period crossover bioequivalence study, fasting: plasma pharmacokinetics of lisinopril and amlodipine (LC-MS/MS, NCA);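 also: single tablet dose 10 mg/5 mg fixed combination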
- Settings: human, plasma, po, Plasma concentration of amlodipine, Min, reference (R) tablets, nominal time 96 h, minimum over subjects
Metric: concentration at 96 h (ng/mL)
Write it as a number; the unit ng/mL goes unstated.

INPUT: Entry CCOC(=O)C1=C(COCCN)NC(C)=C(C(=O)OC)C1c1ccccc1Cl (stereo not shown) [amlodipine] has what concentration at 96 h?
OUTPUT: 0.123

###

- Assay Notes: Single-dose two-period crossover bioequivalence study, fed (high-fat breakfast): plasma pharmacokinetics of lisinopril and amlodipine (LC-MS/MS, NCA)
- Settings: human, plasma, po, Plasma concentration of lisinopril, Max, maximum among subjects, nominal time 36 h, reference (R) tablets
Metric: concentration at 36 h (ng/mL)
Write it as a number; the unit ng/mL goes unstated.

INPUT: Entry NCCCC[C@H](N[C@@H](CCc1ccccc1)C(=O)O)C(=O)N1CCC[C@H]1C(=O)O has what concentration at 36 h?
OUTPUT: 3.64

###

- Assay Notes: Single-dose two-period crossover bioequivalence study, fasting: plasma pharmacokinetics of lisinopril and amlodipine (LC-MS/MS, NCA);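 also: single tablet dose 10 mg/5 mg fixed combination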
- Settings: human, plasma, po, Plasma concentration of amlodipine, Max, reference (R) tablets, nominal time 3 h, maximum over subjects
Metric: concentration at 3 h (ng/mL)
Write it as a number; the unit ng/mL goes unstated.

INPUT: Entry CCOC(=O)C1=C(COCCN)NC(C)=C(C(=O)OC)C1c1ccccc1Cl (stereo not shown) has what concentration at 3 h?
OUTPUT: 3.08

###

- Assay Notes: Single-dose two-period crossover bioequivalence study, fed (high-fat breakfast): plasma pharmacokinetics of lisinopril and amlodipine (LC-MS/MS, NCA)
- Settings: human, in vivo, po, Plasma concentration of lisinopril, individual subjects, nominal time 3 h, reference (R) tablets
Metric: concentration at 3 h (µg/mL)
Write it as a number; the unit µg/mL goes unstated.

INPUT: Entry NCCCC[C@H](N[C@@H](CCc1ccccc1)C(=O)O)C(=O)N1CCC[C@H]1C(=O)O has what concentration at 3 h?
OUTPUT: 0.0224

###

- Assay Notes: Single-dose two-period crossover bioequivalence study, fasting: plasma pharmacokinetics of lisinopril and amlodipine (LC-MS/MS, NCA);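 also: single tablet dose 10 mg/5 mg fixed combination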
- Settings: human, plasma, po, Plasma concentration of amlodipine, Min, reference (R) tablets, nominal time 12 h, minimum over subjects
Metric: concentration at 12 h (ng/mL)
Write it as a number; the unit ng/mL goes unstated.

INPUT: Entry CCOC(=O)C1=C(COCCN)NC(C)=C(C(=O)OC)C1c1ccccc1Cl (stereo not shown) has what concentration at 12 h?
OUTPUT: 0.829

###

- Assay Notes: Single-dose two-period crossover bioequivalence study, fasting: plasma pharmacokinetics of lisinopril and amlodipine (LC-MS/MS, NCA);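 also: single tablet dose 10 mg/5 mg fixed combination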
- Settings: human, plasma, po, Plasma concentration of amlodipine, Max, reference (R) tablets, nominal time 4 h, maximum over subjects
Metric: concentration at 4 h (ng/mL)
Write it as a number; the unit ng/mL goes unstated.

INPUT: Entry CCOC(=O)C1=C(COCCN)NC(C)=C(C(=O)OC)C1c1ccccc1Cl (stereo not shown) has what concentration at 4 h?
OUTPUT: 2.45

###

- Assay Notes: Single-dose two-period crossover bioequivalence study, fasting: plasma pharmacokinetics of lisinopril and amlodipine (LC-MS/MS, NCA);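 also: single tablet dose 10 mg/5 mg fixed combination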
- Settings: human, plasma, po, Plasma concentration of amlodipine, Min, reference (R) tablets, nominal time 48 h, minimum over subjects
Metric: concentration at 48 h (ng/mL)
Write it as a number; the unit ng/mL goes unstated.

INPUT: Entry CCOC(=O)C1=C(COCCN)NC(C)=C(C(=O)OC)C1c1ccccc1Cl (stereo not shown) has what concentration at 48 h?
OUTPUT: 0.391

###

- Assay Notes: Single-dose two-period crossover bioequivalence study, fed (high-fat breakfast): plasma pharmacokinetics of lisinopril and amlodipine (LC-MS/MS, NCA)
- Settings: human, plasma, po, Plasma concentration of lisinopril, Max, maximum among subjects, nominal time 24 h, reference (R) tablets
Metric: concentration at 24 h (ng/mL)
Write it as a number; the unit ng/mL goes unstated.

INPUT: Entry NCCCC[C@H](N[C@@H](CCc1ccccc1)C(=O)O)C(=O)N1CCC[C@H]1C(=O)O [lisinopril] has what concentration at 24 h?
OUTPUT: 8.44

###

- Assay Notes: Single-dose two-period crossover bioequivalence study, fed (high-fat breakfast): plasma pharmacokinetics of lisinopril and amlodipine (LC-MS/MS, NCA)
- Settings: human, plasma, po, Plasma concentration of lisinopril, Max, maximum among subjects, nominal time 168 h, reference (R) tablets
Metric: concentration at 168 h (ng/mL)
Write it as a number; the unit ng/mL goes unstated.

INPUT: Entry NCCCC[C@H](N[C@@H](CCc1ccccc1)C(=O)O)C(=O)N1CCC[C@H]1C(=O)O [lisinopril] has what concentration at 168 h?
OUTPUT: 1.66

Value source: paper PMC9260974
